- test-name: Cmax in dog at 0.14 mg/kg, sublingual
- Format: ADME, organism-based, Canis lupus familiaris
- Parameters: route sublingual, dose 0.14 mg/kg
- measurement-conditions: in vivo
measurement-kind: Cmax (ng/mL)

smiles_code=C[C@@H]1CN(C(=O)[C@@H]2CN(C(C)(C)C)C[C@H]2c2ccc(F)cc2F)C[C@H](C)[C@@]1(O)c1ccccc1.Cl measurement_kind=Cmax value_observed=2.6

* * *

- assayed-system: Melanocortin receptor 4 (Homo sapiens, UniProt P32245)
- Sequence (P32245 whole entry): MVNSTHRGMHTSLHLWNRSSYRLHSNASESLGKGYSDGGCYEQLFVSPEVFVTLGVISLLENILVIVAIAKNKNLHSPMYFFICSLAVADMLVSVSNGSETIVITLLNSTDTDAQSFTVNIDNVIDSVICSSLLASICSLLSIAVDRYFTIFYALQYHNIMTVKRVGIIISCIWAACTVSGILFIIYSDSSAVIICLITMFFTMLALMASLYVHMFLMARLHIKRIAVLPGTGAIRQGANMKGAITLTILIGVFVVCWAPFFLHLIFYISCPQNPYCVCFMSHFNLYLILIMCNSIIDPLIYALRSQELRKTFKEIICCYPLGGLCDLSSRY
- test-name: Agonist activity at human recombinant MC4 receptor expressed in CHO cells by cAMP responsive beta lactamase reporter gene assay
Threshold check on EC50: strictly below 50 nM is Fulfilled; on or above 50 nM is Not fulfilled.

smiles_code=CCCCN1C[C@H](C(=O)N2C[C@@H](C)[C@](O)(c3ccccc3)[C@@H](C)C2)[C@@H](c2ccc(F)cc2F)C1 classification="Not fulfilled"
smiles_code=C[C@@H]1CN(C(=O)[C@@H]2CN(C(C)(C)C)C[C@H]2c2ccc(F)cc2F)C[C@H](C)[C@@]1(O)c1ccccc1.Cl classification=Fulfilled
smiles_code=CC(C)N1C[C@@H](C(=O)N2C[C@@H](C)[C@](O)(c3ccc(Cl)cc3)[C@@H](C)C2)[C@H](c2ccc(F)cc2F)C1 classification="Not fulfilled"
smiles_code=C[C@@H]1CN(C(=O)[C@H]2CN(c3ccncn3)C[C@@H]2c2ccc(F)cc2F)C[C@H](C)[C@@]1(O)c1ccccc1 classification=Fulfilled
smiles_code=CCC[C@@]1(O)[C@H](C)CN(C(=O)[C@@H]2CN(C(C)(C)C)C[C@H]2c2ccc(F)cc2F)C[C@@H]1C classification="Not fulfilled"
smiles_code=COc1ccc([C@@]2(O)[C@H](C)CN(C(=O)[C@@H]3CN(C(C)(C)C)C[C@H]3c3ccc(F)cc3F)C[C@@H]2C)cc1 classification="Not fulfilled"
smiles_code=CCCN1C[C@H](C(=O)N2C[C@@H](C)[C@](O)(c3ccccc3)[C@@H](C)C2)[C@@H](c2ccc(F)cc2F)C1 classification=Fulfilled

* * *

- test-name: Lipophilicity, log D at pH 7.4
- Format: physicochemical
- measurement-conditions: buffer
Overview of reported logD across a group of compounds:
measurement-kind: logD

smiles_code=CCC[C@@]1(O)[C@H](C)CN(C(=O)[C@H]2CN(c3cccnn3)C[C@@H]2c2ccc(F)cc2F)C[C@@H]1C value_observed=2.8
smiles_code=C[C@@H]1CN(C(=O)[C@H]2CN(c3cccnn3)C[C@@H]2c2ccc(F)cc2F)C[C@H](C)[C@@]1(O)c1ccccc1 value_observed=3.3
smiles_code=C[C@@H]1CN(C(=O)[C@@H]2CN(C(C)(C)C)C[C@H]2c2ccc(F)cc2F)C[C@H](C)[C@@]1(O)c1ccc(F)c(F)c1 value_observed=3.5
smiles_code=CCN1C[C@@H](C(=O)N2C[C@@H](C)[C@](O)(c3cccc(F)c3)[C@@H](C)C2)[C@H](c2ccc(F)cc2F)C1 value_observed=2.9
smiles_code=CC(C)N1C[C@@H](C(=O)N2C[C@@H](C)[C@](O)(c3ccc(Cl)cc3)[C@@H](C)C2)[C@H](c2ccc(F)cc2F)C1 value_observed=3.5
smiles_code=CC(C)N1C[C@@H](C(=O)N2C[C@@H](C)[C@](O)(c3cccc(F)c3)[C@@H](C)C2)[C@H](c2ccc(F)cc2F)C1 value_observed=3.2
smiles_code=CC(C)N1C[C@@H](C(=O)N2C[C@@H](C)[C@](O)(c3ccccc3)[C@@H](C)C2)[C@H](c2ccc(F)cc2F)C1 value_observed=3.2

* * *

- test-name: Drug excretion in iv dosed rat bile
- Type: ADME, organism-based
- measurement-conditions: read-out: Drug uptake
measurement-kind: dose excreted

smiles_code=C[C@@H]1CN(C(=O)[C@@H]2CN(C(C)(C)C)C[C@H]2c2ccc(F)cc2F)C[C@H](C)[C@@]1(O)c1ccccc1.Cl value_observed="< 1%"

* * *

- test-name: Cmax in dog at 2.04 mg/kg, sublingual
- Format: ADME, organism-based, Canis lupus familiaris
- Parameters: dose 2.04 mg/kg, route sublingual
- measurement-conditions: in vivo
measurement-kind: Cmax (ng/mL)

smiles_code=C[C@@H]1CN(C(=O)[C@@H]2CN(C(C)(C)C)C[C@H]2c2ccc(F)cc2F)C[C@H](C)[C@@]1(O)c1ccccc1.Cl measurement_kind=Cmax value_observed=41

* * *

- test-name: AUC (0 to infinity) in dog at 2.04 mg/kg, sublingual
- Format: ADME, organism-based, Canis lupus familiaris
- Set-up: time infinity, dose 2.04 mg/kg, route sublingual
- measurement-conditions: plasma
measurement-kind: AUC(0-inf) (ng·h/mL)

smiles_code=C[C@@H]1CN(C(=O)[C@@H]2CN(C(C)(C)C)C[C@H]2c2ccc(F)cc2F)C[C@H](C)[C@@]1(O)c1ccccc1.Cl measurement_kind=AUC(0-inf) value_observed=146

* * *

- test-name: Intrinsic clearance in human liver microsome measured per mg of protein
- Format: ADME
- measurement-conditions: liver microsomes
measurement-kind: log10 of microsomal CLint (log10 of the value in µL/min/mg)

smiles_code=CC(C)N1C[C@@H](C(=O)N2C[C@@H](C)[C@](O)(c3ccccc3)[C@@H](C)C2)[C@H](c2ccc(F)cc2F)C1 value_observed=2.11
smiles_code=C[C@@H]1CN(C(=O)[C@@H]2CNC[C@H]2c2ccc(F)cc2F)C[C@H](C)[C@@]1(O)c1ccc(F)cc1 value_observed=1.11
smiles_code=C[C@@H]1CN(C(=O)[C@@H]2CN(C(C)(C)C)C[C@H]2c2ccc(F)cc2F)C[C@H](C)[C@@]1(O)c1ccccc1.Cl value_observed=1.65
smiles_code=COCCN1C[C@H](C(=O)N2C[C@@H](C)[C@](O)(c3ccccc3)[C@@H](C)C2)[C@@H](c2ccc(F)cc2F)C1 value_observed=1.92
smiles_code=C[C@@H]1CN(C(=O)[C@H]2CN(c3cccnn3)C[C@@H]2c2ccc(F)cc2F)C[C@H](C)[C@@]1(O)c1ccccc1 value_observed=2.39
smiles_code=C[C@@H]1CN(C(=O)[C@@H]2CNC[C@H]2c2ccc(F)cc2F)C[C@H](C)[C@@]1(O)c1ccc(F)c(F)c1 value_observed=0.85

* * *

- test-name: Half life in dog at 0.05 mg/kg, iv
- Format: ADME, organism-based, Canis lupus familiaris
- Set-up: dose 0.05 mg/kg, route intravenous
- measurement-conditions: in vivo
measurement-kind: half-life

smiles_code=C[C@@H]1CN(C(=O)[C@@H]2CN(C(C)(C)C)C[C@H]2c2ccc(F)cc2F)C[C@H](C)[C@@]1(O)c1ccc(F)cc1.Cl measurement_kind=half-life value_observed="10.4 h"

* * *

- test-name: Tmax in dog at 2.04 mg/kg, sublingual
- Format: ADME, organism-based, Canis lupus familiaris
- Design: dose 2.04 mg/kg
- measurement-conditions: in vivo
measurement-kind: Tmax (min)

smiles_code=C[C@@H]1CN(C(=O)[C@@H]2CN(C(C)(C)C)C[C@H]2c2ccc(F)cc2F)C[C@H](C)[C@@]1(O)c1ccccc1.Cl unit_tag=min value_observed=18

* * *

- assayed-system: Melanocyte-stimulating hormone receptor (Homo sapiens)
- Sequence (Q01726 whole entry, looked up, the tested form may be a part): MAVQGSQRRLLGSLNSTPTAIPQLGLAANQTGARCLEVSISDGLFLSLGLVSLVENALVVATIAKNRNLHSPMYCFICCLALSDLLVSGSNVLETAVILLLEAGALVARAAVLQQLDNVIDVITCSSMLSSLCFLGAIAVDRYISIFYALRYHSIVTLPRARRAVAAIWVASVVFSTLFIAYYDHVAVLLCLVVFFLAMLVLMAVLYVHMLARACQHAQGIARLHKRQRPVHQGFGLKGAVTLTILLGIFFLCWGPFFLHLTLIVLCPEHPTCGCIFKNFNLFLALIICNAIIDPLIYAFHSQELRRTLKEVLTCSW
- test-name: Agonist activity at human recombinant MC1 receptor expressed in HEK293 cells assessed as cAMP accumulation by enzyme fragment complementation assay relative to alpha melanocyte-stimulating hormone
- Assay type: functional, cell-based
Overview of reported Emax across a group of molecules:
measurement-kind: Emax (%)

molecule=C[C@@H]1CN(C(=O)[C@@H]2CN(C(C)(C)C)C[C@H]2c2ccc(F)cc2F)C[C@H](C)[C@@]1(O)c1ccccc1.Cl measurement_kind=Emax unit_tag=% value_observed=103
molecule=CCCCN1C[C@H](C(=O)N2C[C@@H](C)[C@](O)(c3ccccc3)[C@@H](C)C2)[C@@H](c2ccc(F)cc2F)C1 measurement_kind=Emax unit_tag=% value_observed=72
molecule=CC(C)N1C[C@@H](C(=O)N2C[C@@H](C)[C@](O)(c3ccccc3)[C@@H](C)C2)[C@H](c2ccc(F)cc2F)C1 measurement_kind=Emax unit_tag=% value_observed=100
molecule=CCC[C@@]1(O)[C@H](C)CN(C(=O)[C@H]2CN(c3cccnn3)C[C@@H]2c2ccc(F)cc2F)C[C@@H]1C measurement_kind=Emax unit_tag=% value_observed=104
molecule="CCCC[C@H](NC(C)=O)C(=O)N[C@H]1CC(=O)NCCCC[C@@H](C(N)=O)NC(=O)[C@H](Cc2c[nH]c3ccccc23)NC(=O)[C@H](CCCNC(=N)N)NC(=O)C(Cc2ccccc2)NC(=O)[C@H](CC2=NC=NC2)NC1=O (single isomer, unassigned)" measurement_kind=Emax unit_tag=% value_observed=98
molecule=C[C@@H]1CN(C(=O)[C@@H]2CN(C(C)(C)C)C[C@H]2c2ccc(F)cc2F)C[C@H](C)[C@@]1(O)c1ccc(F)cc1.Cl measurement_kind=Emax unit_tag=% value_observed=99
molecule=C[C@@H]1CN(C(=O)[C@@H]2CN(C(C)(C)C)C[C@H]2c2ccc(F)cc2F)C[C@H](C)[C@@]1(O)c1ccc(F)cc1F measurement_kind=Emax unit_tag=% value_observed=93
molecule=C[C@@H]1CN(C(=O)[C@H]2CN(C3CCC3)C[C@@H]2c2ccc(F)cc2F)C[C@H](C)[C@@]1(O)c1ccccc1 measurement_kind=Emax unit_tag=% value_observed=79
molecule=CCC[C@@]1(O)[C@H](C)CN(C(=O)[C@@H]2CN(C(C)(C)C)C[C@H]2c2ccc(F)cc2F)C[C@@H]1C measurement_kind=Emax unit_tag=% value_observed=95
molecule=C[C@@H]1CN(C(=O)[C@@H]2CN(C(C)(C)C)C[C@H]2c2ccc(F)cc2F)C[C@H](C)[C@@]1(O)c1ccccn1 measurement_kind=Emax unit_tag=% value_observed=97
molecule=C[C@@H]1CN(C(=O)[C@H]2CN(c3cccnn3)C[C@@H]2c2ccc(F)cc2F)C[C@H](C)[C@@]1(O)c1ccccn1 measurement_kind=Emax unit_tag=% value_observed=67
